The origin of these recorded values is ChEMBL document CHEMBL1156536.

test-description: Cytotoxicity against mock-infected human MT4 cells by MTT assay
Format: cell-based
Field: CC50. Provide a value for each of the compounds that follow.

Query :: Give the value of CC50 reported for the following: CC(OC(=S)Nc1ccc(Cl)cc1)c1ccc2ccccc2c1 (racemic)
Result :: > 100 µM

Query :: Give the value of CC50 reported for the following: S=C(Nc1ccccc1)OCc1c(Cl)cccc1Cl
Result :: > 100 µM

Query :: Give the value of CC50 reported for the following: Cc1ccc(NC(=S)OC(C)COc2ccccc2)cc1 (racemic)
Result :: 24 µM

Query :: Give the value of CC50 reported for the following: CC(OC(=S)Nc1ccc([N+](=O)[O-])cc1)c1ccc(Cl)cc1 (racemic)
Result :: > 100 µM

Query :: Give the value of CC50 reported for the following: S=C(Nc1ccccc1)OC/C=C/c1ccccc1
Result :: > 100 µM

Query :: Give the value of CC50 reported for the following: O=[N+]([O-])c1ccc(NC(=S)OCCc2cccc(O)c2)cc1
Result :: 24 µM

Query :: Give the value of CC50 reported for the following: COc1ccccc1CCOC(=S)Nc1ccc(Cl)c([N+](=O)[O-])c1
Result :: 44 µM

Query :: Give the value of CC50 reported for the following: O=[N+]([O-])c1ccc(NC(=S)OCCc2ccccc2)cc1
Result :: > 100 µM

Query :: Give the value of CC50 reported for the following: S=C(Nc1ccccc1)OCC1COc2ccccc2O1 (centres undefined)
Result :: > 100 µM

Query :: Give the value of CC50 reported for the following: S=C(Nc1ccccc1)OCCOc1ccccc1
Result :: > 100 µM

Query :: Give the value of CC50 reported for the following: S=C(Nc1ccccc1)OC1Cc2ccccc2C1
Result :: > 100 µM

Query :: Give the value of CC50 reported for the following: O=[N+]([O-])c1ccc(NC(=S)OCCc2ccc(O)cc2)cc1
Result :: 41 µM

Query :: Give the value of CC50 reported for the following: S=C(Nc1ccccc1)OCc1cccc(Oc2ccccc2)c1
Result :: > 100 µM

Query :: Give the value of CC50 reported for the following: CC(OC(=S)Nc1ccc(Cl)cc1)c1ccc(-c2ccccc2)cc1 (racemic)
Result :: > 100 µM

Query :: Give the value of CC50 reported for the following: CC(COc1ccccc1)OC(=S)Nc1ccc(F)cc1 (racemic)
Result :: > 100 µM

Query :: Give the value of CC50 reported for the following: COc1ccccc1CCOC(=S)Nc1ccc(Cl)c(Cl)c1
Result :: > 45 µM

Query :: Give the value of CC50 reported for the following: O=[N+]([O-])c1ccc(NC(=S)OCCc2cccc(Cl)c2)cc1
Result :: > 100 µM

Query :: Give the value of CC50 reported for the following: COc1ccccc1CCOC(=S)Nc1ccc(Cl)cc1
Result :: 43 µM

Query :: Give the value of CC50 reported for the following: COc1ccc(CCOC(=S)Nc2ccc([N+](=O)[O-])cc2)cc1
Result :: > 100 µM

Query :: Give the value of CC50 reported for the following: COc1cccc(CCOC(=S)Nc2ccc(Cl)c([N+](=O)[O-])c2)c1
Result :: 43 µM

Query :: Give the value of CC50 reported for the following: CC(OC(=S)Nc1ccccc1)c1ccc(Cl)cc1 (racemic)
Result :: > 100 µM

Query :: Give the value of CC50 reported for the following: CC(COC(=S)Nc1ccc(Cl)cc1)c1ccccc1 (racemic)
Result :: 30 µM

Query :: Give the value of CC50 reported for the following: CC(Cc1ccccc1)OC(=S)Nc1ccccc1 (racemic)
Result :: > 100 µM

Query :: Give the value of CC50 reported for the following: COc1cccc(CCOC(=S)Nc2ccc(Cl)c(Cl)c2)c1
Result :: 44 µM

###

test-description: Cytotoxicity against mock-infected human MT4 cells by MTT assay
Format: cell-based
Field: CC50. Provide a value for each of the molecules that follow.

Query :: Give the value of CC50 reported for the following: O=[N+]([O-])c1ccc(NC(=S)OCCc2ccccc2O)cc1
Result :: 36 µM

Query :: Give the value of CC50 reported for the following: Cc1ccccc1CCOC(=S)Nc1ccc([N+](=O)[O-])cc1
Result :: > 100 µM

Query :: Give the value of CC50 reported for the following: CC(COc1ccccc1)OC(=S)Nc1ccccc1 (racemic)
Result :: > 100 µM

Query :: Give the value of CC50 reported for the following: COc1ccc(NC(=S)OCCOc2ccccc2)cc1
Result :: 48 µM

Query :: Give the value of CC50 reported for the following: Cc1ccc(NC(=S)OC(C)COc2ccccc2)cc1Cl (racemic)
Result :: > 100 µM

Query :: Give the value of CC50 reported for the following: Cc1ccc(NC(=S)OCCOc2ccccc2)cc1
Result :: 74 µM

Query :: Give the value of CC50 reported for the following: S=C(Nc1ccc(Cl)cc1)OCCOc1ccccc1
Result :: 34 µM

Query :: Give the value of CC50 reported for the following: COc1ccc(NC(=S)OCCc2ccccc2)cc1
Result :: 36 µM

Query :: Give the value of CC50 reported for the following: COc1cccc(CCOC(=S)Nc2ccc([N+](=O)[O-])cc2)c1
Result :: > 100 µM

Query :: Give the value of CC50 reported for the following: S=C(Nc1ccccc1)OCC(c1ccccc1)c1ccccc1
Result :: > 100 µM

Query :: Give the value of CC50 reported for the following: S=C(Nc1ccccc1)OCCCc1ccccc1
Result :: > 100 µM

Query :: Give the value of CC50 reported for the following: Oc1ccccc1OCCOC(=S)Nc1ccccc1
Result :: > 100 µM

Query :: Give the value of CC50 reported for the following: S=C(Nc1ccc(Cl)cc1)OCCc1ccccc1
Result :: > 100 µM

###

Test system: Human immunodeficiency virus 1
test-description: Antiviral activity against HIV1 with reverse transcriptase K103N/Y181C mutation in human MT4 cells assessed as inhibition of virus-induced cytopathogenicity by MTT assay
Format: functional, organism-based
settings: Human immunodeficiency virus 1, MT4
Field: pEC50. Provide a value for each of the compounds that follow.
Answer as the number alone; pEC50 is minus log10 of concentration in mol/L.

Query :: Provide measured pEC50 on Human immunodeficiency virus 1 for COc1cccc(CCOC(=S)Nc2ccc(Cl)cc2)c1 please.
Result :: 4.07

Query :: Provide measured pEC50 on Human immunodeficiency virus 1 for Cc1cccc(CCOC(=S)Nc2ccc([N+](=O)[O-])cc2)c1 please.
Result :: 4.16

Query :: Provide measured pEC50 on Human immunodeficiency virus 1 for Cc1ccc(CCOC(=S)Nc2ccc([N+](=O)[O-])cc2)cc1 please.
Result :: 4.04

Query :: Provide measured pEC50 on Human immunodeficiency virus 1 for O=C1Nc2ccc(Cl)cc2C(C#CC2CC2)(C(F)(F)F)O1 (single isomer, unassigned) [EFAVIRENZ] please.
Result :: 7.40

###

test-description: Cytotoxicity against mock-infected human MT4 cells by MTT assay
Type: cell-based
Field: CC50. Provide a value for each of the molecules that follow.

Query :: Give the value of CC50 reported for the following: O=[N+]([O-])c1ccc(OCCOC(=S)Nc2ccc(Cl)cc2)cc1
Result :: 72 µM

Query :: Give the value of CC50 reported for the following: O=[N+]([O-])c1ccc(NC(=S)OCCc2ccccc2Cl)cc1
Result :: > 100 µM

Query :: Give the value of CC50 reported for the following: O=[N+]([O-])c1ccc(NC(=S)OCCOc2ccccc2)cc1
Result :: > 100 µM

Query :: Give the value of CC50 reported for the following: CC(OC(=S)Nc1ccc(Cl)cc1)c1cccc2ccccc12 (racemic)
Result :: > 100 µM

Query :: Give the value of CC50 reported for the following: S=C(Nc1ccccc1)OCc1cccs1
Result :: 38 µM

Query :: Give the value of CC50 reported for the following: S=C(NCCc1ccccn1)Nc1ccc(Br)cn1
Result :: 60 µM

Query :: Give the value of CC50 reported for the following: O=[N+]([O-])c1ccc(NC(=S)OCCc2ccc(Cl)cc2)cc1
Result :: > 100 µM

Query :: Give the value of CC50 reported for the following: COc1ccc(NC(=S)OC(C)COc2ccccc2)cc1 (racemic)
Result :: > 100 µM

Query :: Give the value of CC50 reported for the following: S=C(Nc1ccccc1)OCCc1ccccc1
Result :: 100 µM

###

Field: pIC50. Provide a value for each of the compounds that follow.
system-name: UniProt Q72547
test-description: Inhibition of HIV1 recombinant wild type reverse transcriptase
Answer as the number alone; pIC50 is minus log10 of concentration in mol/L.

Query :: Give the value of pIC50 reported for the following: Cc1ccc(NC(=S)OC(C)COc2ccccc2)cc1 (racemic)
Result :: 5.85

Query :: Give the value of pIC50 reported for the following: CC(COc1ccccc1)OC(=S)Nc1ccccc1 (racemic)
Result :: 6.00

###

test-description: Selectivity index, ratio of CC50 for human MT4 cells to EC50 for HIV1
Format: toxicity, cell-based
settings: read-out: Ratio CC50/EC50
metric-name: selectivity ratio
# output: bare number, no unit

Query :: Give the value of selectivity ratio reported for the following: CC(COC(=S)Nc1ccc(Cl)c([N+](=O)[O-])c1)c1ccccc1 (racemic)
Result :: 82

Query :: Give the value of selectivity ratio reported for the following: Cc1cccc(CCOC(=S)Nc2ccc([N+](=O)[O-])cc2)c1
Result :: 192

Query :: Give the value of selectivity ratio reported for the following: Cc1ccc(NC(=S)OC(C)COc2ccccc2)cc1 (racemic)
Result :: 20
